Target: β-adrenoreceptor (Canis lupus familiaris, UniProt P54833)
Construct: from tissue; host or cells: airways of anesthetized dogs, in vivo
Sequence (P54833 whole entry): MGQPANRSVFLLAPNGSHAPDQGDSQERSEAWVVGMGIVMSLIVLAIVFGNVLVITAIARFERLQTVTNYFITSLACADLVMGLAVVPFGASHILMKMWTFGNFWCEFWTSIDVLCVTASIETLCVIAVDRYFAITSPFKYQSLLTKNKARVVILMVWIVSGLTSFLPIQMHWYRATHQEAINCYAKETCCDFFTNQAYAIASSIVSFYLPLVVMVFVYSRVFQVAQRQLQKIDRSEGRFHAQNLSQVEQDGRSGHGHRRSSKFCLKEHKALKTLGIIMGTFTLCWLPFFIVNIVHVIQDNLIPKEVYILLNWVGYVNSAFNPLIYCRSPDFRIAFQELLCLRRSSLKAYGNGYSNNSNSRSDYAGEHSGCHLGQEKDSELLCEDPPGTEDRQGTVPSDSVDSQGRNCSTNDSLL
Test: Inhibition of histamine-induced bronchial resistance increase (bronchospasm), i.v., Konzett-Rossler method, anesthetized dogs
Assay type: in vivo, dog (male hybrid adult dogs)
Settings: ED50 compared to isoproterenol as standard compound
Protocol: The stimulating activity of the compounds of this invention on β-adrenoreceptor was determined as follows: Male hydrid adult dogs, weighing 10 to 15 kg, were anesthesized with sodium pentobartital administered intravenously at a level of 30 mg/kg of body weight. […] ED50 values were calculated using a Dose Response curve. At the same time the pulse was measured through a transducer and the value was recorded on a polygraph.
Structures can show the parent of a compound that is named as a salt.
Classify by measured Bronchial Resistance (BR) Relative Potency: MET if it is equal to or exceeds 5, NOT MET if it is smaller.

[[record]]
molecule = "CCC(NC(C)C)C(O)c1ccc(OC(=O)CC(C)(C)C)c2[nH]c(=O)ccc12 (centres unmarked) [(6)]"
answer_label = "NOT MET"

[[record]]
molecule = "CCNC(CC)C(O)c1ccc(OC(=O)CC(C)C2CCCCC2)c2[nH]c(=O)ccc12.Cl (centres unmarked) [(5)]"
answer_label = "MET"

[[record]]
molecule = "CCC(NC(C)C)C(OC(C)=O)c1ccc(OC(C)=O)c2[nH]c(=O)ccc12.Cl (centres unmarked) [(3)]"
answer_label = "MET"

[[record]]
molecule = "CCC(NCc1ccccc1)C(O)c1ccc(OC(=O)c2ccc(Cl)cc2)c2[nH]c(=O)ccc12.Cl (centres unmarked) [(11)]"
answer_label = "MET"

[[record]]
molecule = "CCNC(CC)C(O)c1ccc(O)c2[nH]c(=O)ccc12.Cl (centres unmarked) [Compound (2), reference compound]"
answer_label = "NOT MET"

[[record]]
molecule = "CC(C)(C)NCC(O)c1ccc(O)c(CO)c1 (centres unmarked) [Salubutamol (1), Salbutamol, reference compound]"
answer_label = "MET"

[[record]]
molecule = "CCC(NC(C)C)C(OC(=O)c1ccc(C)cc1)c1ccc(OC(=O)c2ccc(C)cc2)c2c1CCC(=O)N2 (centres unmarked) [(12), hydrochloride]"
answer_label = "MET"

[[record]]
molecule = "CCC(NC(C)C)C(O)c1ccc(OC(=O)C(C)C)c2nc(OC(=O)C(C)C)ccc12.Cl (centres unmarked) [(10)]"
answer_label = "MET"


----------
Molecular target: β-adrenoreceptor (Canis lupus familiaris)
Construct: from tissue; host or cells: airways of anesthetized dogs, in vivo
Assay: Inhibition of histamine-induced bronchial resistance increase (bronchospasm), i.v., Konzett-Rossler method, anesthetized dogs
Assay type: in vivo, dog (male hybrid adult dogs)
Conditions: dog, iv, read-out: Bronchial Resistance (BR) ED50, Compound
# reported ED50; entries follow
reported metric: ED50 (µg/kg)

[[record]]
compound = "CCNC(CC)C(O)c1ccc(OC(=O)CC(C)C2CCCCC2)c2[nH]c(=O)ccc12.Cl (stereo not drawn)"
reported_metric = "ED50"
test_value = 0.67

[[record]]
compound = "CCNC(CC)C(O)c1ccc(OC(C)=O)c2[nH]c(=O)ccc12.Cl (stereo not drawn)"
reported_metric = "ED50"
test_value = 0.61

[[record]]
compound = "CCNC(CC)C(O)c1ccc(OC(=O)c2ccc(C)cc2)c2[nH]c(=O)ccc12.Cl (stereo not drawn)"
reported_metric = "ED50"
test_value = 0.16

[[record]]
compound = "CCC(NC(C)C)C(O)c1ccc(OC(=O)Cc2ccccc2)c2[nH]c(=O)ccc12.Cl (stereo not drawn)"
reported_metric = "ED50"
test_value = 0.17

[[record]]
compound = "CCC(NC(C)C)C(O)c1ccc(OC(=O)C(C)C)c2nc(OC(=O)C(C)C)ccc12.Cl (stereo not drawn)"
reported_metric = "ED50"
test_value = 0.95

[[record]]
compound = "CCC(NC(C)C)C(OC(C)=O)c1ccc(OC(C)=O)c2[nH]c(=O)ccc12.Cl (stereo not drawn)"
reported_metric = "ED50"
test_value = 0.82

[[record]]
compound = "CCC(NCc1ccccc1)C(O)c1ccc(OC(=O)c2ccc(Cl)cc2)c2[nH]c(=O)ccc12.Cl (stereo not drawn)"
reported_metric = "ED50"
test_value = 0.91

[[record]]
compound = "CCC(NC(C)C)C(OC(=O)C1CCCCC1)c1ccc(OC(=O)c2ccc(C)cc2)c2[nH]c(=O)ccc12.Cl (stereo not drawn)"
reported_metric = "ED50"
test_value = 0.71

[[record]]
compound = "CCNC(CC)C(O)c1ccc(O)c2[nH]c(=O)ccc12.Cl (stereo not drawn) [Compound (2), reference compound]"
reported_metric = "ED50"
test_value = 0.66

